Recorded Boiling Point by entry
- Test method notes: Boiling point
- Condition parameters: Table 2
Quick reminder: number only, in °C, skip the unit.

Some solved cases for reference:
CN(C)C(C)(C)CO [Dimethyl tertiarybutanolamine (DMTBA), dimethyl tertiary butanolamine] = 150
CN(C)CCN(C)C = 122
CN(C)C [Trimethylamine (TMA), Trimethylamine, reference compound] = 2.87
COCCCN(C)C = 124

For CC(C)C(C)N (stereo not shown) the compound record lists Boiling Point as 87

For CN1CCOCC1 [N-methylmorpholine (NMM), N-methylmorpholine, reference compound] the compound record lists Boiling Point as 116

For CN1CCCC1 the compound record lists Boiling Point as 81

For CN1CCN(C)CC1 the compound record lists Boiling Point as 132

For CN1CCCCC1 the compound record lists Boiling Point as 107

For CN(C)C(C)(C)CO [2-Dimethylamino 2-methyl 2-propanol (DMAMP) 80% azeotrope so] [2-dimethylamino 2-methyl 1-propanol] the compound record lists Boiling Point as 98

* * *

- Test method notes: Amine-HCl salt precipitation potential index (Salt PPI) relative to ammonia salt
- Assay type: physicochemical
- Condition parameters: Table 1; average over 225 to 300° F., ammonia benchmark = 1.0
Recorded Salt PPI by entry
Respond with the number and no other words.

Some solved cases for reference:
CN1CCOCC1 [N-methylmorpholine (NMM), N-methylmorpholine, reference compound] = 0.18
C#CCN(CC)CC = 0.12
CN(C)C [Trimethylamine (TMA), Trimethylamine, reference compound] = 0.10

For CN(C)C1CCCCC1 the compound record lists Salt PPI as 0.10

For CCCNCCC the compound record lists Salt PPI as 0.24

For NCc1ccco1 the compound record lists Salt PPI as 0.38

For CN(C)CCN(C)C the compound record lists Salt PPI as 0.27

* * *

- Test method notes: pKa of the amine
- Assay type: physicochemical
- Condition parameters: Table 1; read-out: pKa
Recorded pKa by entry
Respond with the number and no other words.

CN(C)C [Trimethylamine (TMA), Trimethylamine, reference compound] = 9.76

Query compound follows.
For CCCN(C)CCC the compound record lists pKa as 10.1

* * *

- Test method notes: Amine-HCl salt precipitation potential index (Salt PPI) relative to ammonia salt
- Type: physicochemical
- Condition parameters: Table 2; average over 225 to 300° F., ammonia benchmark = 1.0
Recorded Salt PPI by entry
Respond with the number and no other words.

Some solved cases for reference:
CN1CCN(C)CC1 [1,4-dimethylpiperazine] = 0.18
CN(C)C(C)(C)CO [2-Dimethylamino 2-methyl 2-propanol (DMAMP) 80% azeotrope so] [2-dimethylamino 2-methyl 1-propanol] = 0.27
CN(C)C(C)(C)CO [Dimethyl tertiarybutanolamine (DMTBA), dimethyl tertiary butanolamine] = 0.32

For CN1CCCCC1 [N-methyl piperidine] the compound record lists Salt PPI as 0.24

For CN1CCCC1 [N-methylpyrrolidine] the compound record lists Salt PPI as 0.10

For CN(C)CCN(C)C [N,N,N′,N′-tetramethylethylenediamine] the compound record lists Salt PPI as 0.48

For CN1CCOCC1 [N-methylmorpholine (NMM), N-methylmorpholine, reference compound] the compound record lists Salt PPI as 0.18

* * *

Recorded Neutral. Efficiency pH at 250 ppm by entry
- Test method notes: Neutralization efficiency by two-phase titration (pH at amine titrant concentration)
- Assay type: physicochemical
- Condition parameters: Table 1; 250 ppm amine titrant, 100° C., first set of tests
Respond with the number and no other words.

NCc1ccco1 = 2.6
CN1CCN(C)CC1 = 3.7
CCCN(C)CCC = 2.4
CN(C)C1CCCCC1 = 1.8
CN1CCCC1 = 2.2
CCCCN(C)CCCC = 1.9
C#CCN(CC)CC = 2.2
CC(C)C(C)N (stereo not shown) = 1.4
CN(C)CCN(C)C = 4.7
CCCNCCC = 2.2

For CCN(O)CC [Diethylhydroxylamine] the molecule record lists Neutral. Efficiency pH at 250 ppm as 2.4

For CN(C)C [Trimethylamine (TMA), Trimethylamine, reference compound] the molecule record lists Neutral. Efficiency pH at 250 ppm as 2.6

For CN1CCOCC1 [N-methylmorpholine (NMM), N-methylmorpholine, reference compound] the molecule record lists Neutral. Efficiency pH at 250 ppm as 2.4
